Each entry below carries its recorded solvation free energy, 298 K.
- assay-comment: solvent given as SMILES
- protocol-conditions: in CCOC(C)=O
Express your answer in kcal/mol, writing the number without its unit.

solvation free energy, 298 K reading for `O=C(O)c1ccc([N+](=O)[O-])cc1` : -12.2

solvation free energy, 298 K for `C1CCCCC1` is -3.78

Measured solvation free energy, 298 K, `O=O` : 0.9

Summary for this molecule, `FC(Cl)(Cl)C(F)(Cl)Cl` : solvation free energy, 298 K is -4.62

Short answer for `Oc1ccc(O)cc1` : solvation free energy, 298 K was -12.3

Lab note: `S=C=S` gave solvation free energy, 298 K of -3.12

Values were extracted from the CombiSolv-Exp solvation set (Vermeire and Green 2021).
